- target-entity: T1, MutS (Escherichia coli, UniProt P23909 1-853)
- T1 sequence: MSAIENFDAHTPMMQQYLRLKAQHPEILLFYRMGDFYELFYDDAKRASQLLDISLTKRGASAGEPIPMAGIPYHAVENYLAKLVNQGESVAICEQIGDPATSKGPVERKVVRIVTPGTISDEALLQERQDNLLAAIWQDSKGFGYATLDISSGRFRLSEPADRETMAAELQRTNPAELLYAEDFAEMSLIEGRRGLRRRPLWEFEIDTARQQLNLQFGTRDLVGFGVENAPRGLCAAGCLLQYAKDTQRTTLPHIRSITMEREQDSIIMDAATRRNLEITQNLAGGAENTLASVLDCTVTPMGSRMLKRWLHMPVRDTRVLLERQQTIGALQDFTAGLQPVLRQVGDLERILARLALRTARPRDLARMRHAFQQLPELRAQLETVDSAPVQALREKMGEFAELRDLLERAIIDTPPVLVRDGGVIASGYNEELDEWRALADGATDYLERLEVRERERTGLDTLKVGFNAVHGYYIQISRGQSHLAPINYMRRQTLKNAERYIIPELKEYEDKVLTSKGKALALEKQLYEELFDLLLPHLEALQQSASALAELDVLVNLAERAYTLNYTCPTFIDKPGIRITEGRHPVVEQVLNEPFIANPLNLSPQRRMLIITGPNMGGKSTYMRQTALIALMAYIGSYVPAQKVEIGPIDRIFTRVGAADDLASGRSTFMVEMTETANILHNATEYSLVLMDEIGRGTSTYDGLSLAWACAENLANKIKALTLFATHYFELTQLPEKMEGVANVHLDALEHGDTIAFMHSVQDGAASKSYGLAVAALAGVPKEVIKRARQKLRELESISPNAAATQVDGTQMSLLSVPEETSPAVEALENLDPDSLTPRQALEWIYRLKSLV
- experiment: FRET equilibrium titration
reported-endpoint: Kd (nM)
Numeric only. Scale: nM

Query :: Using known records, supply Kd for 30-1ΔT (dsDNA) DNA 1: AACTGCCAGGCACCAGTGTCAGCGTCGTAT DNA 2: ATACGACGCTGACACTGGTGCCTTGGCAGTT
Result :: 123

The origin of these recorded values is paper PMC2666446.
